tested on: Staphylococcus aureus; assay: Antibacterial activity against methicillin-sensitive Staphylococcus aureus Smith by agar dilution method; format: functional
REPORTED_PROPERTY: MIC (µg/mL)
Quick note: give the figure in µg/mL, leave out the unit.

| COMPOUND | QUANTITY_UNIT | MIC |
| --- | --- | --- |
| N#C[C@]1(c2ccc(-c3c(F)cc(N4C[C@H](Cn5ccnn5)OC4=O)cc3F)cn2)[C@@H]2CS(=O)(=O)C[C@@H]21 | µg/mL | 0.06 |
| N#C[C@]1(c2ccc(-c3ccc(N4C[C@H](Cn5ccnn5)OC4=O)cc3)cn2)[C@@H]2CS(=O)(=O)C[C@@H]21 | µg/mL | 0.06 |
| N#C[C@]1(c2ccc(-c3ccc(N4C[C@H](CNC(=O)C(F)F)OC4=O)cc3F)cn2)[C@@H]2CNC[C@@H]21 | µg/mL | 0.125 |
| NC(=O)[C@]1(c2ccc(-c3ccc(N4C[C@H](Cn5ccnn5)OC4=O)cc3F)cn2)[C@@H]2CNC[C@@H]21 | µg/mL | 2 |
| N#C[C@]1(c2ccc(-c3ccc(N4C[C@H](Cn5ccnn5)OC4=O)cc3F)cn2)[C@@H]2CN(C(=O)CO)C[C@@H]21 | µg/mL | 0.06 |

# lookup: MIC of N#C[C@]1(c2ccc(-c3ccc(N4C[C@H](Cn5ccnn5)OC4=O)cc3)cn2)[C@@H]2CSC[C@@H]21
0.06

Entry under review: N#C[C@]1(c2ccc(-c3ccc(N4C[C@H](Cn5ccnn5)OC4=O)cc3)cn2)[C@@H]2CNC[C@@H]21 . Reported MIC?
0.125

I'd like to know its MIC. The compound in question is N#C[C@]1(c2ccc(-c3c(F)cc(N4C[C@H](Cn5ccnn5)OC4=O)cc3F)cn2)[C@@H]2CNC[C@@H]21
0.125

# get_value(readout='MIC', item= CN1C[C@@H]2[C@H](C1)[C@@]2(C#N)c1ccc(-c2ccc(N3C[C@H](Cn4ccnn4)OC3=O)cc2F)cn1 )
0.06

Suppose we examine the compound N[C@]1(c2ccc(-c3ccc(N4C[C@H](Cn5ccnn5)OC4=O)cc3F)cn2)[C@@H]2CNC[C@@H]21 ; what MIC value has been reported?
1

Look up MIC: COC(=S)NC[C@H]1CN(c2ccc(-c3ccc([C@@]4(C#N)[C@@H]5CNC[C@@H]54)nc3)c(F)c2)C(=O)O1
0.03

// MIC lookup, key: N#C[C@]1(c2ccc(-c3ccc(N4C[C@H](CNC(=O)C5CC5)OC4=O)cc3F)cn2)[C@@H]2CNC[C@@H]21
0.5

Query (compound): N#C[C@]1(c2c(F)cc(-c3ccc(N4C[C@H](Cn5ccnn5)OC4=O)cc3F)cc2F)[C@@H]2CNC[C@@H]21 ; field requested: MIC
0.5

Any idea what MIC was measured for CC(=S)NC[C@H]1CN(c2ccc(-c3ccc([C@@]4(C#N)[C@@H]5CNC[C@@H]54)nc3)c(F)c2)C(=O)O1 ?
0.06

If you can, please state the reported MIC value of N#C[C@]1(c2ccc(-c3ccc(N4C[C@H](CNc5ccon5)OC4=O)cc3F)cn2)[C@@H]2CNC[C@@H]21 .
0.125

Given N#C[C@]1(c2ccc(-c3c(F)cc(N4C[C@H](Cn5ccnn5)OC4=O)cc3F)cn2)[C@@H]2COC[C@@H]21 , state its recorded MIC.
0.06

Can you look up the measured MIC of N#C[C@]1(c2ccc(-c3ccc(N4C[C@H](Cn5ccnn5)OC4=O)cc3F)cn2)[C@@H]2CSC[C@@H]21 for me?
0.06

Looking for the measured MIC of NC[C@]1(c2ccc(-c3ccc(N4C[C@H](Cn5ccnn5)OC4=O)cc3F)cn2)[C@@H]2CNC[C@@H]21 , can you help?
4

What measured MIC goes with N#C[C@]1(c2ccc(-c3ccc(N4C[C@H](COc5ccon5)OC4=O)cc3F)cn2)[C@@H]2CNC[C@@H]21 ?
0.06

Please look up its MIC: CC(=O)NC[C@H]1CN(c2ccc(N3CCOCC3)c(F)c2)C(=O)O1 [LINEZOLID]
1

Would you kindly share the measured MIC for N#C[C@]1(c2ccc(-c3ccc(N4C[C@H](Cn5ccnn5)OC4=O)cc3F)cn2)[C@@H]2COC[C@@H]21 ?
0.06

Param item = N#C[C@]1(c2ccc(-c3ccc(N4C[C@H](Cn5ccnn5)OC4=O)cc3F)cc2F)[C@@H]2CNC[C@@H]21 ; retrieve measured MIC.
0.25

# MIC lookup, item CC(=O)NC[C@H]1CN(c2ccc(-c3ccc([C@@]4(C#N)[C@@H]5CNC[C@@H]54)nc3)c(F)c2)C(=O)O1
0.125

Origin of values: ChEMBL document CHEMBL1140184
